Source listed as ChEMBL document CHEMBL1136798.

target: 5-hydroxytryptamine receptor 2A (Rattus norvegicus); assay: Tested for its ability to activate phospholipase C by quantification of IP3 at cloned rat 5-hydroxytryptamine 2A receptor
Sequence (P14842 whole entry): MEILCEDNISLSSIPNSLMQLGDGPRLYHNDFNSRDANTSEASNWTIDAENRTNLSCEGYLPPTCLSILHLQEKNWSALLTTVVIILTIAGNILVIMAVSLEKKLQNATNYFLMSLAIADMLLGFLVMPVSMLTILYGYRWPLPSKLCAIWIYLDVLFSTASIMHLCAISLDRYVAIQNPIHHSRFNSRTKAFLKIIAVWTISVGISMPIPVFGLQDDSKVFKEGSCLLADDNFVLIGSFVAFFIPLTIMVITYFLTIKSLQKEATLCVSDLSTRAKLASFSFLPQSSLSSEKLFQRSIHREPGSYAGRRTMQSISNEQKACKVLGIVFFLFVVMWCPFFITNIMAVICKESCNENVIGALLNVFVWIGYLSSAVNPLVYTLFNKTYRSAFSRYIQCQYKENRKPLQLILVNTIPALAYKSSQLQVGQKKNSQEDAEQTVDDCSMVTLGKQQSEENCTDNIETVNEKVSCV
Recorded EC50, one value per entry.
Property: EC50 (nM)

Compound	Target Of Assay	Modifier	Reported
COc1ccc2occ3c2c1[C@H](CN)CC3	5-hydroxytryptamine receptor 2A (Rattus norvegicus)	>	10000
CN(C)CCc1c[nH]c2cccc(O)c12	5-hydroxytryptamine receptor 2A (Rattus norvegicus)	=	2300
COc1cc(Br)c2c3c1[C@H](CN)CC[C@@H]3CO2	5-hydroxytryptamine receptor 2A (Rattus norvegicus)	=	1100
COc1cc(Br)c2occ3c2c1[C@H](CN)CC3	5-hydroxytryptamine receptor 2A (Rattus norvegicus)	=	120
COc1cc(Br)c2c3c1C[C@H](N)C[C@@H]3CO2 (relative stereo)	5-hydroxytryptamine receptor 2A (Rattus norvegicus)	=	2090
